Just for reference, BindingDB's records for doi:10.1021/jm011020u is where these values come from.

target-of-assay: Glycogen synthase kinase-3 beta [7-25] (Oryctolagus cuniculus, UniProt G1T8E2)
Construct: 7-25
measurement-notes: GSK-3 Inhibition Assay
test-conditions: pH 7.5; 37 °C
endpoint-name: pIC50
# reply with the number alone; pIC50 is -log10 of concentration in mol/L

## Input So what's the measured pIC50 for this one? `Cn1sc(=O)n(-c2cccc(Br)c2)c1=O`
## Output 5.40

## Input Name the reported pIC50 value associated with the molecule `Cn1sc(=O)n(-c2ccccc2)c1=O`
## Output 5.70

## Input State the recorded pIC50 for this entry: `O=c1sn(Cc2ccccc2)c(=O)n1Cc1ccccc1`
## Output 5.00

## Input Item under review: `CCn1c(=O)sn(C2CCCCC2)c1=O` . Reported pIC50?
## Output 5.00

## Input Entry `CCn1c(=O)sn(C)c1=O` has what pIC50?
## Output 5.30

## Input What does the record list as pIC50 for `Cn1sc(=O)n(-c2ccccc2Br)c1=O` ?
## Output 5.22

## Input Need pIC50, item `Cn1sc(=O)n(-c2ccc(Br)cc2)c1=O`
## Output 5.52

## Input // returns reported pIC50 for input `CCn1sc(=O)n(Cc2ccccc2)c1=O`
## Output 5.15

## Input Entry `CCn1c(=O)sn(C(C)C)c1=O` has what pIC50?
## Output 4.46

## Input Look up pIC50 for this molecule: `CCCn1sc(=O)n(CC)c1=O`
## Output 5.00

## Input Entry `CCn1sc(=O)n(CC)c1=O` : reported pIC50 = ?
## Output 4.60
